These data points were gathered from patent US6884600B1.

Biological target: PP1GL
Assay: Phosphorylase phosphatase activity of PP1GL (hepatic glycogen particles)
Format: biochemical, rat
Details: hepatic glycogen particles, 15 min 30° C.; read-out: concentration required for 50% activation of the phosphorylase phosphatase activity of PP1GL
REPORTED_PROPERTY: pEC50
For clarity, pEC50 is expressed as the negative log10 of concentration in mol/L.

What value of pEC50 has been reported for the following sequence? GRRVSFADNFGFNLVSVKEFDTWELPSVSTT [GM-(G63-T93), synthetic peptide, residues 63-93 of rabbit GM] 7.52

====

Molecular target: PP1c (Oryctolagus cuniculus)
Construct: from tissue; host or cells: rabbit skeletal muscle (PP1G dissociated with LiBr)
Sequence (P62143 whole entry): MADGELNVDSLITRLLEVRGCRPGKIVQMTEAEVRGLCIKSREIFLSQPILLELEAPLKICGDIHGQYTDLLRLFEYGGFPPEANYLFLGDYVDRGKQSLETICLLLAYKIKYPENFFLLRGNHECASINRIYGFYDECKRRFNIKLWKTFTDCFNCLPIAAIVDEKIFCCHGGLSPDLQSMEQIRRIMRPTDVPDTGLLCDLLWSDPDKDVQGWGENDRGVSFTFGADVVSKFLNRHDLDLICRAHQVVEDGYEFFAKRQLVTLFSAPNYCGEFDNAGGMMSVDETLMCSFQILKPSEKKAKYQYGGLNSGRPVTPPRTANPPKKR
Assay: MLC20 (myosin P-light chain) phosphatase activity of PP1c
Format: biochemical
No end group written: not given here.
REPORTED_PROPERTY: pEC50
For clarity, pEC50 is expressed as the negative log10 of concentration in mol/L.

I'm curious: which pEC50 was measured for MKMADAKQKRNEQLKRWIGSETDLEPPVVKRQKTKVKF [M110-(M1-F38)] tested on PP1c (Oryctolagus cuniculus)? 8.00
